assay.overview: Compound was evaluated for the inhibition of SBL-M222C-SEtNH3+ enzyme.
Design: species or system Lederbergia lenta
This section presents molecules with their documented Ki values.
Hi! Could you send only the number? It should be in µM, unit omitted.

Examples with answers:
OB(O)c1ccc(Br)cc1 ... 10.5
OB(O)c1ccccc1 ... 108
Nc1cccc(B(O)O)c1 ... 127
OB(O)c1cccc(-c2ccccc2)c1 ... 40

Hello, please tell me recorded Ki for this one: `OB(O)c1ccc(Cl)cc1Cl`
8.9

* * *

assay.overview: Compound was evaluated for the inhibition of SBL-WT enzyme.
Design: species or system Lederbergia lenta
Some compounds, each annotated with its measured pKi.
When answering, recall that pKi equals minus log10 of the concentration in mol/L, and write that number alone.

OB(O)c1cccc(-c2ccccc2)c1 ... 3.49
OB(O)c1ccccc1 [PHENYLBORONIC ACID] ... 3.85
OB(O)c1ccc(Br)cc1 ... 4.64
OB(O)c1ccc(Cl)cc1Cl ... 5.04

Below: the item to evaluate.
Complete the entry with pKi for `Nc1cccc(B(O)O)c1`
3.82

* * *

assay.overview: Compound was evaluated for the inhibition of SBL-M222C-SMe enzyme.
Set-up: species or system Lederbergia lenta
reported.metric: Ki (µM)
Note: unit µM is implicit; provide only the numeric part.

The cases that follow already have their Ki on record.
OB(O)c1cccc(-c2ccccc2)c1 ... 153
OB(O)c1ccc(Br)cc1 ... 11.2
Nc1cccc(B(O)O)c1 ... 139
OB(O)c1ccccc1 ... 123

Look up and state reported Ki for `OB(O)c1ccc(Cl)cc1Cl`
3.8

* * *

assay.overview: Compound was evaluated for the inhibition of SBL-M222C-SEtSO3- enzyme.
Set-up: species or system Lederbergia lenta
reported.metric: Ki (µM)
The answer is to be given in µM; state only the numeric part.

Known results for molecules:
OB(O)c1ccccc1 [PHENYLBORONIC ACID] ... 146
OB(O)c1ccc(Cl)cc1Cl ... 11
OB(O)c1ccc(Br)cc1 ... 15.6
OB(O)c1cccc(-c2ccccc2)c1 ... 25

Kindly consider the entry below.
Return the recorded Ki value; entry: `Nc1cccc(B(O)O)c1`
176

* * *

assay.overview: Compound was evaluated for the inhibition of SBL-M222C enzyme.
Parameters: species or system Lederbergia lenta
Label satisfied when Ki is strictly below 20 µM; at or above that, label not satisfied.

Recorded results for 4 molecules are shown here.
OB(O)c1ccccc1 [PHENYLBORONIC ACID] ... not satisfied
OB(O)c1ccc(Br)cc1 ... not satisfied
OB(O)c1ccc(Cl)cc1Cl ... satisfied
OB(O)c1cccc(-c2ccccc2)c1 ... not satisfied

Lab log: compare recorded Ki with 20 µM; is it strictly lower for `Nc1cccc(B(O)O)c1` ?
not satisfied
